Could you please report measured selectivity ratio for the items listed next?
Experiment: Selectivity ratio of IC50 for human MCF10A cells to IC50 for human MDA-MB-231 cells
Assay type: ADME, cell-based, MCF-10A
Conditions: MCF10A cells versus MDA-MB-231 cells, read-out: Ratio IC50
Please reply with the number alone, leaving off any unit.

Q: // returns reported selectivity ratio for input "CC(C)n1c(/C=C2/C(=O)Nc3ccc(Br)cc32)nc2ccccc21"
Result: 17

Q: Another compound to check: "Cc1ccc2c(c1)/C(=C\c1nc3ccccc3n1C(C)C)C(=O)N2"
Result: 14

====

Test: Selectivity ratio of IC50 for human MCF10A cells to IC50 for […] cells
Format: ADME, cell-based, MCF-10A
Conditions: MCF10A cells versus 4TI cells, read-out: Ratio IC50
Assignment: determine reported selectivity ratio for the given molecules.
No unit in the answer, only the number.

Q: Entry "CC(C)n1c(/C=C2/C(=O)Nc3ccc(Br)cc32)nc2ccccc21" has what selectivity ratio?
Result: 9.5

Q: How about "Cc1ccc2c(c1)/C(=C\c1nc3ccccc3n1C(C)C)C(=O)N2" ?
Result: 10.6

====

Experiment: Cytotoxicity against HGC cells assessed as growth inhibition at 50 uM after 48 hrs by MTT assay relative to control
Format: functional
Conditions: Homo sapiens, read-out: GI
test_readout: inhibition of growth at 50 µM

Q: What does the data say about its inhibition of growth at 50 µM? Entry: "CCn1c(/C=C2/C(=O)Nc3ccccc32)nc2ccccc21"
Result: < 50%

Q: Next: "Cc1ccc2c(c1)/C(=C\c1nc3ccccc3n1C)C(=O)N2"
Result: < 50%

Q: Try this compound next: "Cn1c(/C=C2/C(=O)Nc3ccc(Br)cc32)nc2ccccc21"
Result: < 50%

Q: Would you kindly repeat that for "Cn1c(/C=C2/C(=O)Nc3ccccc32)nc2ccccc21" ?
Result: < 50%

Q: Now try "Cn1c(/C=C2/C(=O)Nc3ccc(Cl)cc32)nc2ccccc21" .
Result: > 50%

Q: Also "Cc1ccc2c(c1)/C(=C\c1nc3ccccc3n1C(C)C)C(=O)N2" ?
Result: > 50%

Q: And "CCn1c(/C=C2/C(=O)Nc3ccc(Cl)cc32)nc2ccccc21" ?
Result: < 50%

Q: Now give it for "Cn1c(/C=C2/C(=O)Nc3ccc(F)cc32)nc2ccccc21" too.
Result: > 50%

Q: Item: "CCn1c(/C=C2/C(=O)Nc3ccc(Br)cc32)nc2ccccc21"
Result: < 50%

Q: Lookup "CC(C)n1c(/C=C2/C(=O)Nc3ccc(Cl)cc32)nc2ccccc21"
Result: > 50%

Q: Next: "CC(C)n1c(/C=C2/C(=O)Nc3ccc(Br)cc32)nc2ccccc21"
Result: > 50%

====

Exercise: state measured inhibition of growth at 50 µM for each of the compounds provided.
Assay: Cytotoxicity against […] cells assessed as growth inhibition at 50 uM after 48 hrs by MTT assay relative to control
Type: functional
Details: Mus musculus, 4T1, 48 h; read-out: GI

Q: Any idea what inhibition of growth at 50 µM was measured for "Cn1c(/C=C2/C(=O)Nc3ccc(Br)cc32)nc2ccccc21" ?
Result: < 50%

Q: Please give the result for "Cc1ccc2c(c1)/C(=C\c1nc3ccccc3n1C(C)C)C(=O)N2" too.
Result: > 50%

Q: And "CCn1c(/C=C2/C(=O)Nc3ccc([N+](=O)[O-])cc32)nc2ccccc21" ?
Result: < 50%

Q: And "Cn1c(/C=C2/C(=O)Nc3ccccc32)nc2ccccc21" ?
Result: < 50%

Q: What do you get for "CCn1c(/C=C2/C(=O)Nc3ccc(Cl)cc32)nc2ccccc21" ?
Result: < 50%

Q: Repeat for the following compound: "CC(C)n1c(/C=C2/C(=O)Nc3ccc(F)cc32)nc2ccccc21"
Result: > 50%

Q: And for "Cc1ccc2c(c1)/C(=C\c1nc3ccccc3n1C)C(=O)N2" ?
Result: < 50%

Q: And then "CCn1c(/C=C2/C(=O)Nc3ccc(C)cc32)nc2ccccc21" , what is it?
Result: > 50%

Q: What do you get for "Cn1c(/C=C2/C(=O)Nc3ccc(F)cc32)nc2ccccc21" ?
Result: > 50%

Q: Again, but for "CCn1c(/C=C2/C(=O)Nc3ccccc32)nc2ccccc21"
Result: < 50%

Q: Subsequent entry: "Cn1c(/C=C2/C(=O)Nc3ccc([N+](=O)[O-])cc32)nc2ccccc21"
Result: < 50%

Q: Now consider "CC(C)n1c(/C=C2/C(=O)Nc3ccc(Br)cc32)nc2ccccc21" .
Result: > 50%

Q: Continue with "CCn1c(/C=C2/C(=O)Nc3ccc(Br)cc32)nc2ccccc21"
Result: > 50%

Q: Now consider "CCn1c(/C=C2/C(=O)Nc3ccc(F)cc32)nc2ccccc21" and answer again.
Result: < 50%

Q: Now the compound "Cn1c(/C=C2/C(=O)Nc3ccc(Cl)cc32)nc2ccccc21"
Result: > 50%

Data provenance: ChEMBL document CHEMBL3865824
